# Tested on: antibodies in sera from SARS patients (sera 1a, 1b, 2, 6, 37, 62, London, SARS-yellow, SARS-green)
# Format: binding, human
Label criterion met for high-side Binding of serum 1b to looped/cyclic peptides of protein M of SARS-CoV Urbani (at or above 0.5) and criterion not met for low-side Binding of serum 1b to looped/cyclic peptides of protein M of SARS-CoV Urbani (below it).

Some solved entries appear below for comparison.
CFVLAAVYRINWVTG    criterion met
LVIGFLFLAWIMLLQ    criterion met
GFAAYNRYRIGNYKL    criterion not met
WLLWPVTLACFVLAA    criterion not met
SMWSFNPETNILLNV    criterion not met
LPKEITVATSRTLSY    criterion not met

Note: attention shifts to another entry.
[in] Evaluate WPVTLACFVLAAVYR : Binding of serum 1b to looped/cyclic peptides of protein M of SARS-CoV Urbani at minimum 0.5?
[out] criterion met

###

# System: antibodies in sera from SARS patients (sera 1a, 1b, 2, 6, 37, 62, London, SARS-yellow, SARS-green)
# Format: binding, human
Overview of reported Binding of serum SARS-yellow to linear peptides of protein X4 of SARS-CoV Urbani across a group of sequences:

QQELYSPLFLIVAAL    0.6

[in] Field request: Binding of serum SARS-yellow to linear peptides of protein X4 of SARS-CoV Urbani | item: FALTCTSTHFAFACA
[out] 0.6

[in] Bench note: what Binding of serum SARS-yellow to linear peptides of protein X4 of SARS-CoV Urbani did LFLTLIVFTSCELYH show?
[out] 0.6

###

# Test system: antibodies in sera from SARS patients (sera 1a, 1b, 2, 6, 37, 62, London, SARS-yellow, SARS-green)
# Type: binding, human
Property: Binding of serum 62 to linear peptides of protein X2
Respond using a number only.

LVLKMLHSSSLTSLL    0.5
LHSSSLTSLLKTHRM    0.5
MCKYTQSTALQELLI    0.8

[in] Look up Binding of serum 62 to linear peptides of protein X2: VTAFQHQNSKKTTKL
[out] 0.3

[in] Form field: reported Binding of serum 62 to linear peptides of protein X2 of YTQSTALQELLIQQW
[out] 0.6

[in] What does the record list as Binding of serum 62 to linear peptides of protein X2 for LTSLLKTHRMCKYTQ ?
[out] 0.6

###

# Test system: antibodies in sera from SARS patients (sera 1a, 1b, 2, 6, 37, 62, London, SARS-yellow, SARS-green)
# Assay type: binding, human
# Design: unit not given here
Examples of sequences with documented Binding of serum 62 to looped/cyclic peptides of protein N of SARS-CoV Urbani follow.

Answered cases to consult:
RGNSPARMASGGGET    0.4
RFPRGQGVPINTNSG    0.4
LTQHGKEELRFPRGQ    0.4
YNVTQAFGRRGPEQT    0.3
ATEGALNTPKDHIGT    0.3

[in] Which value of Binding of serum 62 to looped/cyclic peptides of protein N of SARS-CoV Urbani has been reported for WFTALTQHGKEELRF in the records?
[out] 0.6

[in] Item IGMEVTPSGTWLTYH has what recorded Binding of serum 62 to looped/cyclic peptides of protein N of SARS-CoV Urbani?
[out] 1.0

[in] Given RPQGLPNNTASWFTA , state its recorded Binding of serum 62 to looped/cyclic peptides of protein N of SARS-CoV Urbani.
[out] 0.8

[in] // returns reported Binding of serum 62 to looped/cyclic peptides of protein N of SARS-CoV Urbani for input FSRQLQNSMSGASAD
[out] 0.2

[in] Return reported Binding of serum 62 to looped/cyclic peptides of protein N of SARS-CoV Urbani; argument: ALTQHGKEELRFPRG
[out] 0.2

[in] Name the recorded Binding of serum 62 to looped/cyclic peptides of protein N of SARS-CoV Urbani for GANKEGIVWVATEGA .
[out] 0.3

[in] Which value of Binding of serum 62 to looped/cyclic peptides of protein N of SARS-CoV Urbani has been reported for HWPQIAQFAPSASAF in the records?
[out] 1.0

[in] Look up Binding of serum 62 to looped/cyclic peptides of protein N of SARS-CoV Urbani for this sequence: MSRIGMEVTPSGTWL
[out] 0.7

[in] Give the measured Binding of serum 62 to looped/cyclic peptides of protein N of SARS-CoV Urbani of HIDAYKTFPPTEPKK .
[out] 0.2

[in] What Binding of serum 62 to looped/cyclic peptides of protein N of SARS-CoV Urbani value was documented for this sequence, FTALTQHGKEELRFP ?
[out] 0.3
